The measurements presented in this section are drawn from PubChem BioAssay AID1159580.

run description: chemical genetic growth profiling, strain panel (AID 1159580);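 note: tested at 20 µM; growth read once vehicle control cultures reached saturation at 30 °C; 1 = growth at the plate median or of vehicle wells; lower values mean less growth of the strain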
setup conditions: S. cerevisiae deletion strains, growth OD, locus YKL190W, strain CNB1, active compounds read low
Hit rate of the full screen: of about 5,500 compounds, about 2,000 (36%) were called active. Roughly 18% stayed inconclusive and do not appear here. This is one part of the list.
In plain terms, low normalized growth, meaning strictly below 1, gives true (1), and everything else gives false (0).

Lab log: compare recorded normalized growth with 1; is it strictly lower for `COc1ccc2c(=O)c(-c3cc4c(cc3OC)OCO4)coc2c1` ? false (0)

`CC1(C)C=Cc2c(cc3occ(-c4ccc5c(c4)OCO5)c(=O)c3c2O)O1` ? true (1)

`O=c1nc(-c2ccccc2)nc(-c2ccccc2)[nH]1` ? true (1)
